// read-out IC50, gathered for human mPGES-1 (Homo sapiens, UniProt O14684) from published studies
// units = nM; emit number, no label

Report IC50 for "Cc1cc(C)cc(-c2cc(-c3nc4cc(C)ccc4o3)cc(NC(=O)c3ccccc3C(F)(F)F)c2N)c1" tested on human mPGES-1 (Homo sapiens, UniProt O14684). 130

State its IC50 on human mPGES-1 (Homo sapiens, UniProt O14684): "COc1ccccc1/C=C/S(=O)(=O)Nc1cc(F)ccc1S(N)(=O)=O" 300

Return IC50 measured with human mPGES-1 (Homo sapiens, UniProt O14684) given this compound: "NS(=O)(=O)c1cc(F)ccc1NS(=O)(=O)/C=C/c1ccc2ccccc2c1" 290

Param readout= IC50; system= human mPGES-1 (Homo sapiens, UniProt O14684); entry= "COc1cc(C(=O)NS(=O)(=O)c2ccccc2S(N)(=O)=O)ccc1C#CC(C)(C)C" ; returns value. 270

GET /values?readout=IC50&system=human mPGES-1 (Homo sapiens, UniProt O14684)&item= "NS(=O)(=O)c1ccccc1S(=O)(=O)NC(=O)c1ccc(Cl)cc1O" 1000

human mPGES-1 (Homo sapiens, UniProt O14684) / IC50 / "NS(=O)(=O)c1ccccc1S(=O)(=O)NC(=O)c1ccc(C#Cc2ccccc2)c(CO)c1" : value? 70

Notebook: pull reported IC50 for human mPGES-1 (Homo sapiens, UniProt O14684), entry "CCOc1nc2c(C(=O)NCc3ccccc3C(F)(F)F)cc(NC(=O)c3ccccc3C(F)(F)F)cc2[nH]1" 7.5

Tell me reported IC50 for CCCC(C)C#Cc1ccc(C(=O)NS(=O)(=O)c2ccccc2S(N)(=O)=O)cc1OCCC(F)(F)F (centres unmarked) , tested with human mPGES-1 (Homo sapiens, UniProt O14684). 14
